experimental-system: T1, C-terminal human Regnase-1 (amino acids 301 to 599) with N-terminal FLAG tag and C-terminal BirA recognition … (human, UniProt Q5D1E8 301-599)
T1 sequence: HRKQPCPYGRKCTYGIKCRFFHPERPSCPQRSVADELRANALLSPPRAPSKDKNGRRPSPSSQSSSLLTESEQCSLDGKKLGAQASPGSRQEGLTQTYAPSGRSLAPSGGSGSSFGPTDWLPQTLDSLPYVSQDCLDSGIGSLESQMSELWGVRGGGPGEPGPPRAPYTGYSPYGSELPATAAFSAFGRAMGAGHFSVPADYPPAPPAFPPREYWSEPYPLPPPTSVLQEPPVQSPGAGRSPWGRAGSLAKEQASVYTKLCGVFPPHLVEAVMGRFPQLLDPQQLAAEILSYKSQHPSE
assay-summary: cell-based or functional assay
measure-name: 50% inhibition concentration, Regnase-1 phosphorylation by IKKβ (AlphaScreen) (µM)
API: value field is a number in µM; no unit string.

## Task Complete the entry with 50% inhibition concentration, Regnase-1 phosphorylation by IKKβ (AlphaScreen) for XRFRQWKWVYPD (HELM PEPTIDE1{[meA].R.F.R.Q.W.K.W.V.Y.P.D.[C1CCN([*:1])C1]}$PEPTIDE1,PEPTIDE1,1:R1-12:R3$$$V2.0; SMILES CC(C)[C@@H]1NC(=O)[C@H](Cc2c[nH]c3ccccc23)NC(=O)[C@H](CCCCN)NC(=O)[C@H](Cc2c[nH]c3ccccc23)NC(=O)[C@H](CCC(N)=O)NC(=O)[C@H](CCCNC(=N)N)NC(=O)[C@H](Cc2ccccc2)NC(=O)[C@H](CCCNC(=N)N)NC(=O)[C@H](C)N(C)C(=O)C[C@@H](C(=O)N2CCCC2)NC(=O)[C@@H]2CCCN2C(=O)[C@H](Cc2ccc(O)cc2)NC1=O) [PP13]
## Result 23.2
